Where do the numbers come from? From ChEMBL document CHEMBL3879893.

IC50 by entry:
- TEST_TARGET: Exportin-1 (Homo sapiens, UniProt O14980)
- Sequence (O14980 whole entry, the tested form may be a part): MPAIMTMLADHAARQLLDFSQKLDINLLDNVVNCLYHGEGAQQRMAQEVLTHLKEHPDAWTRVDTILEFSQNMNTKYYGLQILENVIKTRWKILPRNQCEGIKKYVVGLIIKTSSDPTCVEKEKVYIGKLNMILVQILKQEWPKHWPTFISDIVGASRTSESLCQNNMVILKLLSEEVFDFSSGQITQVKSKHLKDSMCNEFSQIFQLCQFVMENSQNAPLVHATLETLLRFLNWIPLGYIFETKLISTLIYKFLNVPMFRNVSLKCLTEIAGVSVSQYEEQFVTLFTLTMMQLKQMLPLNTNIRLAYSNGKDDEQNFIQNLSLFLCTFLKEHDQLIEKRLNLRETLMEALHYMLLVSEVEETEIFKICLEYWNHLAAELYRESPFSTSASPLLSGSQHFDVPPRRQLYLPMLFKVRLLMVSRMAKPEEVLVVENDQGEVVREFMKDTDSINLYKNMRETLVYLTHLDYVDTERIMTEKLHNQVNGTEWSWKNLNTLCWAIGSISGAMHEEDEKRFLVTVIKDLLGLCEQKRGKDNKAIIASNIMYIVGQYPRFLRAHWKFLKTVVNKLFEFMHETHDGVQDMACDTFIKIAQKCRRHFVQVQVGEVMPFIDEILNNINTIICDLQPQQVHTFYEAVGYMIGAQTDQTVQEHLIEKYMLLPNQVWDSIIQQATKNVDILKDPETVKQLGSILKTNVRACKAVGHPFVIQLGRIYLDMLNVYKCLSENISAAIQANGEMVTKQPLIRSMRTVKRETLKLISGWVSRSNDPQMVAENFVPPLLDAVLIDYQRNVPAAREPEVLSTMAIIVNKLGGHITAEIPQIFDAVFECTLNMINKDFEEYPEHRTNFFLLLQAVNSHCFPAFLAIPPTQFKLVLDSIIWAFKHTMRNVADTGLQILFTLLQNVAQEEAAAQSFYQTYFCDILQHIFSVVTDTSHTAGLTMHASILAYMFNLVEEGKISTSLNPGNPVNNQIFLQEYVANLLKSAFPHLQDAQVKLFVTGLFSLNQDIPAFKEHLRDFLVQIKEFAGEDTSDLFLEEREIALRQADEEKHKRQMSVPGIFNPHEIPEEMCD
- ASSAY_TEXT: Inhibition of Crm1 in human U2OS cells expressing GFP-fused HIV1 Rev assessed as decrease in nuclear export of GFP-fused HIV1 Rev after 1 hr by Hoechst 33258 staining-based assay

As a guide, the following entries are already answered.
Query string: Item under review: `CC(C)OC(=O)/C=C/n1cnc(-c2cc(OCCN3CCCC3)cc(C(F)(F)F)c2)n1` . Reported IC50?
Result string: ≥ 10 µM

Query string: Item under review: `CC(C)(C)OC(=O)/C=C\n1cnc(-c2cccc(Cl)c2)n1` . Reported IC50?
Result string: 1 to 10 µM

Query string: Item under review: `CS(=O)(=O)/C=C\n1cnc(-c2cccc(Cl)c2)n1` . Reported IC50?
Result string: ≤ 1 µM

Query string: Item under review: `CC(C)OC(=O)/C=C\n1cnc(-c2cc(O/C=C/C(=O)OC(C)C)cc(C(F)(F)F)c2)n1` . Reported IC50?
Result string: 1 to 10 µM

Query string: Item under review: `COC(=O)/C=C\n1cnc(-c2cc(Cl)cc(OC)c2)n1` . Reported IC50?
Result string: ≤ 1 µM

Continuing:
Query string: Item under review: `CC(C)OC(=O)/C=C\c1n[nH]c(-c2cccc(Cl)c2)n1` . Reported IC50?
Result string: ≤ 1 µM

Query string: Item under review: `CC(C)OC(=O)/C=C\n1cnc(-c2cc(Cl)nc(OC(C)C)c2)n1` . Reported IC50?
Result string: ≤ 1 µM

Query string: Item under review: `O=C(/C=C\n1cnc(-c2cccc(Cl)c2)n1)OCc1ccccn1` . Reported IC50?
Result string: ≤ 1 µM

Query string: Item under review: `CC(C)OC(=O)/C=C\n1cnc(-c2cc(Cl)cc(Oc3ccc(Cl)cc3)c2)n1` . Reported IC50?
Result string: 1 to 10 µM

Query string: Item under review: `CC(C)OC(=O)/C=C\n1cnc(-c2cncc(Cl)c2)n1` . Reported IC50?
Result string: ≤ 1 µM

Query string: Item under review: `O=C(/C=C\n1cnc(-c2cccc(Cl)c2)n1)N1CCC1` . Reported IC50?
Result string: ≤ 1 µM

Query string: Item under review: `CCOC(=O)/C=C\n1cnc(-c2cc(Cl)cc(OC)c2)n1` . Reported IC50?
Result string: ≤ 1 µM

----------
- TEST_TARGET: Exportin-1 (Homo sapiens, UniProt O14980)
- ASSAY_TEXT: Inhibition of Crm1 in human U2OS cells expressing GFP-fused HIV1 Rev assessed as decrease in nuclear export of GFP-fused HIV1 Rev after 1 hr by Hoechst 33258 staining-based assay
IC50 by entry:

As a guide, the following entries are already answered.
Query string: Item under review: `CC(C)OC(=O)/C=C\c1nnc(-c2cccc(F)c2)[nH]1` . Reported IC50?
Result string: 1 to 10 µM

Query string: Item under review: `CN(C(=O)/C=C\c1nnc(-c2cccc(Cl)c2)[nH]1)c1ccccc1` . Reported IC50?
Result string: ≥ 10 µM

Query string: Item under review: `CC(C)(C)OC(=O)/C=C/n1cnc(-c2cccc(Cl)c2)n1` . Reported IC50?
Result string: ≥ 10 µM

Query string: Item under review: `CC(C)Nc1cc(-c2ncn(/C=C\C(=O)OC(C)C)n2)cc(C(F)(F)F)n1` . Reported IC50?
Result string: ≤ 1 µM

Query string: Item under review: `CC(C)OC(=O)/C=C\n1cnc(-c2cc(NC3CCC3)nc(C(F)(F)F)c2)n1` . Reported IC50?
Result string: ≤ 1 µM

Continuing:
Query string: Item under review: `Cc1cccc(-c2ncn(/C=C\C(=O)OC(C)C)n2)c1` . Reported IC50?
Result string: ≤ 1 µM

Query string: Item under review: `CC(C)OC(=O)/C=C\n1cnc(-c2cc(C#N)cc(OC(C)C)c2)n1` . Reported IC50?
Result string: ≤ 1 µM

Query string: Item under review: `CC(C)OC(=O)/C=C\n1cnc(-c2cc(Cl)nc(Cl)c2)n1` . Reported IC50?
Result string: ≤ 1 µM

Query string: Item under review: `CC(C)Oc1cc(-c2ncn(/C=C\C(=O)OCc3ccccn3)n2)cc(C(F)(F)F)c1` . Reported IC50?
Result string: ≤ 1 µM

Query string: Item under review: `CCOC(=O)/C=C\n1cnc(-c2cc(Cl)cc(Cl)c2)n1` . Reported IC50?
Result string: ≤ 1 µM

Query string: Item under review: `COc1ccc(-c2ncn(/C=C\C(=O)OC(C)C)n2)cc1Cl` . Reported IC50?
Result string: 1 to 10 µM

----------
pIC50 by entry:
- TEST_TARGET: Exportin-1 (Homo sapiens, UniProt O14980)
- ASSAY_TEXT: Inhibition of Crm1 in human U2OS cells expressing GFP-fused HIV1 Rev assessed as decrease in nuclear export of GFP-fused HIV1 Rev after 1 hr by Hoechst 33258 staining-based assay
pIC50: −log10 of the molar value.

As a guide, the following entries are already answered.
Query string: Item under review: `CC(C)OC(=O)/C=C\Cn1cnc(-c2cccc(Cl)c2)n1` . Reported pIC50?
Result string: 5.00 to 6.00

Query string: Item under review: `CC(C)OC(=O)/C=C\n1cnc(-c2cc(OC(C)C)nc(C(F)(F)F)c2)n1` . Reported pIC50?
Result string: ≥ 6.00

Query string: Item under review: `COc1cc(Cl)cc(-c2ncn(/C=C\C(=O)OC(C)C)n2)c1` . Reported pIC50?
Result string: ≥ 6.00

Query string: Item under review: `CC(C)OC(=O)/C=C\n1cnc(-c2cccc(C(F)(F)F)c2)n1` . Reported pIC50?
Result string: ≥ 6.00

Moving on to the next compound.
Query string: Item under review: `CC(C)OC(=O)/C=C\n1cnc(-c2ccc(-c3ccccc3)c(F)c2)n1` . Reported pIC50?
Result string: ≤ 5.00

----------
- TEST_TARGET: UniProt:O14980
- ASSAY_TEXT: Inhibition of Crm1 in human U2OS cells expressing GFP-fused HIV1 Rev assessed as decrease in nuclear export of GFP-fused HIV1 Rev after 1 hr by Hoechst 33258 staining-based assay
IC50 by entry:

As a guide, the following entries are already answered.
Query string: Item under review: `CC(C)OC(=O)/C=C\n1cnc(-c2cc(OC(C)C)cc(C(F)(F)F)c2)n1` . Reported IC50?
Result string: ≤ 1000 nM

Query string: Item under review: `CCOC(=O)/C=C/n1cnc(-c2cccc(Cl)c2)n1` . Reported IC50?
Result string: ≥ 10000 nM

Query string: Item under review: `O=C(/C=C/n1cnc(-c2cccc(Cl)c2)n1)Nc1cccc(Cl)c1` . Reported IC50?
Result string: ≥ 10000 nM

Continuing:
Query string: Item under review: `O=C(/C=C\n1cnc(-c2cccc(Cl)c2)n1)OCc1cnc[nH]1` . Reported IC50?
Result string: 1000 to 10000 nM

Query string: Item under review: `COc1cc(OC)cc(-c2ncn(/C=C\C(=O)OC(C)C)n2)c1` . Reported IC50?
Result string: ≤ 1000 nM

Query string: Item under review: `O=C(/C=C/n1cnc(-c2cccc(Cl)c2)n1)OC1CNC1` . Reported IC50?
Result string: 1000 to 10000 nM

----------
- TEST_TARGET: Exportin-1 (Homo sapiens, UniProt O14980)
- ASSAY_TEXT: Inhibition of Crm1 in human U2OS cells expressing GFP-fused HIV1 Rev assessed as decrease in nuclear export of GFP-fused HIV1 Rev after 1 hr by Hoechst 33258 staining-based assay
IC50 by entry:

As a guide, the following entries are already answered.
Query string: Item under review: `O=C(/C=C\n1cnc(-c2cccc(Cl)c2)n1)NC1CCCC1` . Reported IC50?
Result string: ≥ 10000 nM

Query string: Item under review: `O=C(/C=C\n1cnc(-c2cccc(Cl)c2)n1)OC1COC1` . Reported IC50?
Result string: ≤ 1000 nM

Query string: Item under review: `COc1cc(-c2ncn(/C=C\C(=O)OC3CNC3)n2)cc(C(F)(F)F)c1` . Reported IC50?
Result string: ≤ 1000 nM

Continuing:
Query string: Item under review: `CCOC(=O)/C=C\n1cnc(-c2cccc(Cl)c2)n1` . Reported IC50?
Result string: ≤ 1000 nM
